Record form. Attribute: IC50. Fill in for each entry.
Target: human ALK5 (ALK5 T204D kinase domain) (Homo sapiens, UniProt P36897, T204D)
Construct: The kinase domain of human ALK5 (amino acids 200-503) is fused to an N-terminal histidine tag
Sequence (P36897 200-503 T204D): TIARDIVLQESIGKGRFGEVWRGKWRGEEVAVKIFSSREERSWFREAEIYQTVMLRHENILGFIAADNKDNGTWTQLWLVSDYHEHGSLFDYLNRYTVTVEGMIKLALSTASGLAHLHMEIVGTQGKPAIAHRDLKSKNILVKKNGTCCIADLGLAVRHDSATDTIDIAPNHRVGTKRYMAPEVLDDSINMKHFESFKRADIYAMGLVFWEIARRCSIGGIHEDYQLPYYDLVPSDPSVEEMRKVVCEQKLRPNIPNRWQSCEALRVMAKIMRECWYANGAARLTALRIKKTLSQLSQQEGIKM
Assay: ALK5 kinase activity, radiolabelled phosphate [33P] incorporation into casein
Conditions: casein substrate, 1 μM unlabelled ATP
Report only the number, with the unit nM understood.

Data request: Identify measured IC50 corresponding to CCOC(=O)c1ccc(-c2cnn3c(-c4cccc(-n5cccn5)c4)cnc3c2)cc1
Data returned: 141

Data request: Identify measured IC50 corresponding to c1cncc(-c2cnn3c(-c4cccc(-n5cccn5)c4)cnc3c2)c1
Data returned: 47

Data request: Identify measured IC50 corresponding to NC(=O)c1cccc(-c2cnc3cc(-c4cccc(F)c4)cnn23)c1
Data returned: 83

Data request: Identify measured IC50 corresponding to COc1cc(-c2cnc3cc(-c4cccnc4)cnn23)ccc1O
Data returned: 203

Data request: Identify measured IC50 corresponding to CNC(=O)c1cccc(-c2cnn3c(-c4ccnc(-c5ccc(F)cc5)c4)cnc3c2)c1
Data returned: 139

Data request: Identify measured IC50 corresponding to CNC(=O)c1cccc(-c2cnn3c(-c4ccnc(-c5ccccc5)c4)cnc3c2)c1
Data returned: 83

Data request: Identify measured IC50 corresponding to CCCCNC(=O)c1cccc(-c2cnn3c(-c4ccnc(-c5ccccc5)c4)cnc3c2)c1
Data returned: 236

Data request: Identify measured IC50 corresponding to Oc1cccc(-c2cnn3c(-c4cccc(-n5cccn5)c4)cnc3c2)c1
Data returned: 24

Data request: Identify measured IC50 corresponding to c1ccc(-c2cc(-c3cnc4cc(-c5ccncc5)cnn34)ccn2)cc1
Data returned: 28

Data request: Identify measured IC50 corresponding to CS(=O)(=O)Nc1cccc(-c2cnn3c(-c4ccnc(-c5ccoc5)c4)cnc3c2)c1
Data returned: 42
